molecular target: the molecule itself; experiment: SEC + SEC-MALS + other: negative stain electron microscopy; self-assembly of the protomer into the nanoparticle; Superose 6 10/300 at 0.5 ml/min with DAWN HELEOS II and Optilab T-rEX detectors, glycan mass corrected by protein-conjugate analysis; nsEM at 0.1 mg/ml in HBS, uranyl formate
Attribute Measured: binding result

C-term WT 60mer (other, glycosylated (engineered glycosylation sites), Plasmodium falciparum circumsporozoite protein (PfCSP), strain 3D7; wild-type C-terminal αTSR domain, without the C-terminal linker; linker; C-terminal extension with two added glycosylation sites; Self-assembling lumazine synthase nanoparticle; cloned into pHLsec between the leader and a double stop codon (AgeI/KpnI); also called wild-type C-terminal domain on 60mer; WT αTSR 60mer; source: …) EPSDKHIKEYLNKIQNSLSTEWSPCSVTCGNGIQVRIKPGSANKPKDELDYANDIEKKICKMEKCGGSMQIYEGKLTAEGLRFGIVASRANHALVDRLVEGAIDAIVRHGGREEDITLVRVCGSWEIPVAAGELARKENISAVIAIGVLCRGATPSFDYIASEVSKGLADLSLELRKPITFGVITADTLEQAIEAAGTCHGNKGWEAALCAIEMANLFKSLRGGSNGTGGSGGSNGT; binds
P8 60mer (other, glycosylated (engineered glycosylation sites), Plasmodium falciparum circumsporozoite protein (PfCSP), strain 3D7; linker between the peptide and lumazine synthase; C-terminal extension with two added glycosylation sites; Self-assembling lumazine synthase nanoparticle; cloned into pHLsec between the leader and a double stop codon (AgeI/KpnI); source: FreeStyle 293 F cells, transfected, purified (snowdrop lectin agarose, Superose 6 SEC); …) NYYGKQENWYSLKKNGSGNGTGGSMQIYEGKLTAEGLRFGIVASRANHALVDRLVEGAIDAIVRHGGREEDITLVRVCGSWEIPVAAGELARKENISAVIAIGVLCRGATPSFDYIASEVSKGLADLSLELRKPITFGVITADTLEQAIEAAGTCHGNKGWEAALCAIEMANLFKSLRGGSNGTGGSGGSNGT; binds
J2 24mer (other, glycosylated (engineered glycosylation sites), Plasmodium falciparum circumsporozoite protein (PfCSP), strain 3D7; J2, minimal junction peptide beginning with Region I; Self-assembling ferritin nanoparticle; cloned into pHLsec between the leader and a double stop codon (AgeI/KpnI); also called peptide J2-24mer; source: FreeStyle 293 F cells, transfected, purified (snowdrop lectin agarose, Superose 6 SEC); copies: 24) KLKQPADGNPDPNANPNVDPNANPNVDPLSKDIIKLLNEQVNKEMQSSNLYMSMSSWCYTHSLDGAGLFLFDHAAEEYEHAKKLIIFLNENNVPVNLTSISAPEHNFTGLTQIFQKAYEHEQNISESINNITDHAIKSKDHATFNFLQWYVAEQHEEEVLFKDILDKIELIGNENHGLYLADQYVKGIAKSRKS; binds
